# Test system: Cr. neoformans strains
# ASSAY_NOTES: MIC testing (CLSI M27-A3, YNB, 72 h)
# Assay type: cell-based, Cryptococcus neoformans
# RUN_CONDITIONS: Cr. neoformans; inhibits 50% of strains
Listed here are compounds together with their documented MIC50.
Number in µg/mL, nothing else.

STRUCTURE_AS_SMILES	PARAMETER	ASSAY_RESULT
CC[C@H](C)C[C@H](C)CCCCCCCCC(=O)N[C@H]1C[C@@H](O)[C@@H](NCCN)NC(=O)[C@@H]2[C@@H](O)CCN2C(=O)[C@H]([C@H](O)CCN)NC(=O)[C@H]([C@H](O)[C@@H](O)c2ccc(O)cc2)NC(=O)[C@@H]2C[C@@H](O)CN2C(=O)[C@H]([C@@H](C)O)NC1=O	MIC50	16

Request: Please report the measured MIC50 for OC(Cn1cncn1)(Cn1cncn1)c1ccc(F)cc1F tested on Cr. neoformans strains.
Response: 2

Request: Return reported MIC50 for target or system Cr. neoformans strains, item C[C@@H]1[C@H](O)[C@@H](C)/C=C/C=C/C=C/C=C/C=C/C=C/C=C/[C@H](O[C@@H]2O[C@H](C)[C@@H](O)[C@H](N)[C@@H]2O)C[C@@H]2O[C@](O)(C[C@@H](O)[C@H](O)CC[C@@H](O)C[C@@H](O)C[C@@H](O)CC(=O)O[C@H]1C)C[C@H](O)[C@H]2C .
Response: 1

Request: Fetch value of MIC50 on Cr. neoformans strains for C[C@@H]1[C@H](O)[C@@H](C)/C=C/C=C/C=C/C=C/C=C/C=C/C=C/[C@H](O[C@@H]2O[C@H](C)[C@@H](O)[C@H](N)[C@@H]2O)C[C@@H]2O[C@](O)(C[C@@H](O)C[C@@H](O)[C@H](O)CC[C@@H](O)C[C@@H](O)CC(=O)O[C@H]1C)C[C@H](O)[C@H]2C(=O)O .
Response: 0.25
